- assay target: HDAC6 enzyme (Homo sapiens)
- Construct: HDAC6 enzyme prepared by transducing full length HDAC6 gene into Sf-9 insect cells; GST; purchased SignalChem; host or cells: Sf-9 insect cells
- protocol details: HDAC6 enzyme inhibitory assay (HDAC-Glo I/II Assay kit)
- Format: biochemical
- experimental setup: wells without enzyme = 100% inhibition, read-out: HDAC6 inhibitory rate (%) (10 μM)
experimental readout: inhibition at 10 µM (%)

compound	experimental readout	uom	result number
O=C1c2cc(-c3nnc(C(F)F)o3)ccc2CN1[C@H](c1ncccn1)[C@@H](O)c1ccc(F)c(F)c1 (single isomer, unassigned) [Example 94]	inhibition at 10 µM	%	100
O=C1c2cc(-c3nnc(C(F)F)o3)ccc2CN1[C@H](c1ccc(F)cc1)[C@@H](O)c1ccccc1 (single isomer, unassigned) [Example 45]	inhibition at 10 µM	%	100
O=C1c2cc(-c3nnc(C(F)F)o3)ccc2CN1[C@H](c1ccc(F)c(F)c1)[C@@H](O)c1ccccn1 (single isomer, unassigned) [Example 50]	inhibition at 10 µM	%	99
O=C1c2cc(-c3nnc(C(F)F)o3)ccc2CN1[C@H](c1ccccn1)[C@H](O)c1ccc(F)cc1 (racemic) [Example 141]	inhibition at 10 µM	%	99
O=C1c2cc(-c3nnc(C(F)F)o3)ccc2CN1[C@H](c1cnccn1)[C@@H](O)c1cccc(Cl)c1 (single isomer, unassigned) [Example 91]	inhibition at 10 µM	%	100
O=C1c2cc(-c3nnc(C(F)F)o3)ccc2CN1[C@H](c1ccccc1)[C@H](O)c1ccccc1 [Example 12]	inhibition at 10 µM	%	100

---

inhibition at 10 µM listing for selected compounds.
- assay target: HDAC6 enzyme (Homo sapiens, UniProt Q9UBN7)
- Construct: HDAC6 enzyme prepared by transducing full length HDAC6 gene into Sf-9 insect cells; GST; purchased SignalChem; host or cells: Sf-9 insect cells
- Sequence (Q9UBN7 1-1215): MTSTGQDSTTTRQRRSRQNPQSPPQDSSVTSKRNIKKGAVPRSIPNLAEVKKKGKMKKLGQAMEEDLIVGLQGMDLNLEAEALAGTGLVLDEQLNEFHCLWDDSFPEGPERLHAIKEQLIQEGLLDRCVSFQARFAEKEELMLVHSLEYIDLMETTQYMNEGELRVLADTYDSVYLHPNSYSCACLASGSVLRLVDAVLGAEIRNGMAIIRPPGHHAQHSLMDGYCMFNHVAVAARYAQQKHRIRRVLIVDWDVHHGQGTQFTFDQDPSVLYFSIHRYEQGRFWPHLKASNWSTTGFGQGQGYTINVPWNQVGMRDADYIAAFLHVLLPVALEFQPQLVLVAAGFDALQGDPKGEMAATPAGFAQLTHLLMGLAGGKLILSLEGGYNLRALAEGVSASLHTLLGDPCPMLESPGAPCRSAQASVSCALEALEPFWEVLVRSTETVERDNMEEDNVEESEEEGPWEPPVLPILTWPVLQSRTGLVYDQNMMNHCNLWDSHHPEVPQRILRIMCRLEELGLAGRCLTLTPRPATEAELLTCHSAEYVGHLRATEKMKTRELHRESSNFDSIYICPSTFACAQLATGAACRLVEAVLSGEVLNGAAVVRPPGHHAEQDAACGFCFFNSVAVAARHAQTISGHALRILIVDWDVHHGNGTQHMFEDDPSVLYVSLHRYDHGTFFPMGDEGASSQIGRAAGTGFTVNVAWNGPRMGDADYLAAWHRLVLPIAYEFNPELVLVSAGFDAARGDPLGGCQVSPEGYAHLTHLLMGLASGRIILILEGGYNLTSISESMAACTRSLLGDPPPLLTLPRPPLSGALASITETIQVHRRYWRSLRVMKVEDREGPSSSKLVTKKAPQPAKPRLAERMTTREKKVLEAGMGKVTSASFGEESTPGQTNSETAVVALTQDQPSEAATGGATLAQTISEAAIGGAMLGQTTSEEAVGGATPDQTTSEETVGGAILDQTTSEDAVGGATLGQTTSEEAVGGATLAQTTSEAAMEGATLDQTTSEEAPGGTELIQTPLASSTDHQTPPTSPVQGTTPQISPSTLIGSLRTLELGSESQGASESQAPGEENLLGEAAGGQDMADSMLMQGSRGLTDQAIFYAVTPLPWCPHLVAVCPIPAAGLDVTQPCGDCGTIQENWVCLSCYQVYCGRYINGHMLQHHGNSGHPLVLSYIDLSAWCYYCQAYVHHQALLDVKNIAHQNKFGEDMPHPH
- protocol details: HDAC6 enzyme inhibitory assay (HDAC-Glo I/II Assay kit)
- Type: biochemical
- experimental setup: wells without enzyme = 100% inhibition, read-out: HDAC6 inhibitory rate (%) (10 μM)

compound	uom	inhibition at 10 µM
O=C1c2cc(-c3nnc(C(F)F)o3)ccc2CN1[C@@H](c1ccc(F)cc1F)[C@@H](O)c1ccc(F)cc1 (racemic)	%	95
O=C1c2cc(-c3nnc(C(F)F)o3)ccc2CN1[C@H](c1ccc(F)cc1)[C@@H](O)c1ccc(F)nc1 (racemic) [Example 58]	%	100
O=C1c2cc(-c3nnc(C(F)F)o3)ccc2CN1[C@H](c1ccccn1)[C@@H](O)c1cccc(Cl)n1 (single isomer, unassigned)	%	99

---

- assay target: HDAC6 enzyme (Homo sapiens)
- Construct: HDAC6 enzyme prepared by transducing full length HDAC6 gene into Sf-9 insect cells; GST; purchased SignalChem; host or cells: Sf-9 insect cells
- protocol details: HDAC6 enzyme inhibitory assay (HDAC-Glo I/II Assay kit)
- Format: biochemical
- experimental setup: wells without enzyme = 100% inhibition, read-out: HDAC6 inhibitory rate (%) (10 μM)

compound	inhibition at 10 µM (%)
O=C1c2cc(-c3nnc(C(F)F)o3)ccc2CN1[C@H](C1CC1)[C@H](O)c1ccc(F)cc1 [Example 137]	100
O=C1c2cc(-c3nnc(C(F)F)o3)ccc2CN1[C@@H](c1ccc(F)cn1)[C@H](O)c1ccc(F)cn1 (stereo in doubt) [Example 6]	100
N#Cc1cccc([C@H]([C@@H](O)c2ccccc2)N2Cc3ccc(-c4nnc(C(F)F)o4)cc3C2=O)c1 (racemic) [Example 40]	100
O=C1c2cc(-c3nnc(C(F)F)o3)ccc2CN1[C@H](c1ccccc1)[C@@H](O)c1ccccn1 (single isomer, unassigned) [Example 47]	99
O=C1c2cc(-c3nnc(C(F)F)o3)ccc2CN1[C@H](c1ccccn1)[C@H](O)c1ccccc1 (racemic) [Example 143]	100
O=C1c2cc(-c3nnc(C(F)F)o3)ccc2CN1[C@@H](c1ccccc1)[C@H](O)c1ccccc1 [Example 14]	100
O=C1c2cc(-c3nnc(C(F)F)o3)ccc2CN1[C@H](c1ccc(F)cc1)[C@H](O)C1CC1 (racemic) [Example 140]	98

---

- assay target: HDAC6 enzyme (Homo sapiens)
- Construct: HDAC6 enzyme prepared by transducing full length HDAC6 gene into Sf-9 insect cells; GST; purchased SignalChem; host or cells: Sf-9 insect cells
- Sequence (Q9UBN7 1-1215): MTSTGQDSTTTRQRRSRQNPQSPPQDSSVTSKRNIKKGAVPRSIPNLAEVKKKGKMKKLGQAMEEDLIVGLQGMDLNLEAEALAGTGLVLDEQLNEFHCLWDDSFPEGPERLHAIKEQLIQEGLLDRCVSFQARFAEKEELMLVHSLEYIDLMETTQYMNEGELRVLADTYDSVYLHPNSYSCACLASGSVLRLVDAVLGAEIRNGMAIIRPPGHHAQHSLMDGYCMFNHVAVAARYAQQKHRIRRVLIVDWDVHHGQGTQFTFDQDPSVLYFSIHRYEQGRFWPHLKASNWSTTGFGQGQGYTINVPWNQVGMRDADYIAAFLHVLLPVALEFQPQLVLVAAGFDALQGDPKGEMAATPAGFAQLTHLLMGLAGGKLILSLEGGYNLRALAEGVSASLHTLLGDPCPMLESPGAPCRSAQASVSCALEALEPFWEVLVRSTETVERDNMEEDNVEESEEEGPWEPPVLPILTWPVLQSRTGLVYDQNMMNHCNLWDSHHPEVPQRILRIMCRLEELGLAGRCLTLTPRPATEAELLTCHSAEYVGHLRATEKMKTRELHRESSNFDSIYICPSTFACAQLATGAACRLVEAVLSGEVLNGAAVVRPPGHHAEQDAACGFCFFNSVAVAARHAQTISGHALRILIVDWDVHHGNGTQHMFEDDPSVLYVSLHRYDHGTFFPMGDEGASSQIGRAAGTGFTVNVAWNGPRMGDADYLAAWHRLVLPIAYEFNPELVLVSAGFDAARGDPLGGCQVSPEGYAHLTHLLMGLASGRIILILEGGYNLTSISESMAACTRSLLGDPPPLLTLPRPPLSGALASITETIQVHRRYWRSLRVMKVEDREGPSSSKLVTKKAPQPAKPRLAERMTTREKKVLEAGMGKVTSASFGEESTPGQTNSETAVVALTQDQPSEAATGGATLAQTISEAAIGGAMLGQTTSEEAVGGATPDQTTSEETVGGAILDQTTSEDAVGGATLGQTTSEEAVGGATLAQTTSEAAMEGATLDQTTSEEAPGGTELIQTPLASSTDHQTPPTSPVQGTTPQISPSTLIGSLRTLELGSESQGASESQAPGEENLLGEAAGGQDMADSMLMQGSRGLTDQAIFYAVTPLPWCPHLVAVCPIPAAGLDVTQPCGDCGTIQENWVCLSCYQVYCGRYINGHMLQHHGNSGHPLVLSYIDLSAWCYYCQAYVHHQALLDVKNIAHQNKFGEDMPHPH
- protocol details: HDAC6 enzyme inhibitory assay (HDAC-Glo I/II Assay kit)
- Format: biochemical
- experimental setup: wells without enzyme = 100% inhibition, read-out: HDAC6 inhibitory rate (%) (10 μM)
In this section we review reported inhibition at 10 µM values for a set of molecules.

molecule	inhibition at 10 µM [%]
O=C1c2cc(-c3nnc(C(F)F)o3)ccc2CN1[C@@H](c1ccccn1)[C@@H](O)c1cccc(F)c1 (racemic) [Example 145]	99
O=C1c2cc(-c3nnc(C(F)F)o3)ccc2CN1[C@H](C1CC1)[C@@H](O)c1ncccn1 (single isomer, unassigned) [Example 73]	100
O=C1c2cc(-c3nnc(C(F)F)o3)ccc2CN1[C@@H](c1ccc(F)cc1)[C@@H](O)c1ccccc1 (racemic) [Example 138]	99
O=C1c2cc(-c3nnc(C(F)F)o3)ccc2CN1[C@H](c1ccc(F)cn1)[C@H](O)c1ccccn1 (racemic) [Example 144]	100
O=C1c2cc(-c3nnc(C(F)F)o3)ccc2CN1[C@H](c1cccc(F)n1)[C@@H](O)c1ccccn1 (single isomer, unassigned) [Example 75]	99
O=C1c2cc(-c3nnc(C(F)F)o3)ccc2CN1[C@H](C1CCOCC1)[C@H](O)c1cccc(F)c1 [Example 149]	100
